# target-or-test-system: T1, human nectin-4 protein expressed on the surface of cells (human, UniProt Q96NY8 32-510)
# T1 sequence: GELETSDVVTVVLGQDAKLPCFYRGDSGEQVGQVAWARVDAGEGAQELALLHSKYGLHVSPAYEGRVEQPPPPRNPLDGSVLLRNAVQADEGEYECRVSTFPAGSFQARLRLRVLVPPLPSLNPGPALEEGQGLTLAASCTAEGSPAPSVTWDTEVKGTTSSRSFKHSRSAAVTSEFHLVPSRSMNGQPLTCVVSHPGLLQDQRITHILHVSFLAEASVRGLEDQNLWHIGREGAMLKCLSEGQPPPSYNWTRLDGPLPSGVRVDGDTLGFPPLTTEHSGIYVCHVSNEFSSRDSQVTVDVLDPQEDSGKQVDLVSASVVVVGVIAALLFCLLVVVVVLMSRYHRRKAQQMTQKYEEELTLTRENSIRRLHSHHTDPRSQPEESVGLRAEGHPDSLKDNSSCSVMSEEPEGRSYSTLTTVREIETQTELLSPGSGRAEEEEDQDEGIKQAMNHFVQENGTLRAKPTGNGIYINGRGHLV
# assay-protocol: cell-based or functional assay
For each of the binders below, state its Cell kill IC50, HekNectin4.
Numbers only, in nM.

Recorded Cell kill IC50, HekNectin4 of Nectin-4 5D9 VH3/VL3 (antibody, V domains shown, Humanized; also called 5D9 VH variant 3 / 5D9 VL variant 3) VH: QVQLQESGPGLVKPSETLSLTCTVSGGSITNYGVHWIRQPPGKGLEWLGVIWSGGSTDYNPSLKSRVTISVDTSKNQFSLKLSSVTAADTAVYYCARSGKWYYFDYWGQGTLVTVSS VL: DIQMTQSPSSLSASVGDRVTITCRASQSIYSNLAWYQQKPGKAPKLLVYAATNLASGVPSRFSGSGSGTDFTLTISSLQPEDFATYYCQHFWGTPTFGGGTKVEIK , please.
27.1

Recorded Cell kill IC50, HekNectin4 of Nectin-4 5D9 VH3/VL2 (antibody, V domains shown, Humanized; also called 5D9 VH variant 3 / 5D9 VL variant 2) VH: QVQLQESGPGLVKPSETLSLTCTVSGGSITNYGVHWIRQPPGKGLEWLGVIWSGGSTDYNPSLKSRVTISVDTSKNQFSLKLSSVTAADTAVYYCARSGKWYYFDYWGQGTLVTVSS VL: DIQMTQSPSSLSASVGDTVTITCRASQNIYSNLAWYQQKQGKAPKLLVYAATNLADGVPSRFSGSGSGTDFTLKINSLQPEDFATYYCQHFWGTPTFGGGTKVEIK , please.
54.8

Switching to the query record.
Recorded Cell kill IC50, HekNectin4 of Nectin-4 5D9 VH4/VL3 (antibody, V domains shown, Humanized; also called 5D9 VH variant 4 / 5D9 VL variant 3) VH: QVQLQQSGPGLVKPSETLSLTCTVSGFSLTNYGVHWVRQPPGKGLEWLGVIWSGGSTDYNPSLKSRLTISRDTSKNQVSFKMSSVTAADTAVYYCARSGKWYYFDYWGQGTLVTVSS VL: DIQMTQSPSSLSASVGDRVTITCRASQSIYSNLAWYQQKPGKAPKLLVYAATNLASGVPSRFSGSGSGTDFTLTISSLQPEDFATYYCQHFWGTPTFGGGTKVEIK , please.
0.333

Data origin, for the record: patent US20250101098A1
